Data origin: ChEMBL document CHEMBL1141650

# Method: Inhibition of telomerase by TRAP assay
Below, each of the compounds is paired with its reported IC50 value.

As a guide, the following entries are already answered.
Smiles Structure	Metric Name	Value Measured
CC(=O)Nc1ccc2c3cccc4c3c([n+](C)c2c1)-c1ccccc1N4C.[I-]	IC50	380 nM
CCN1c2ccccc2-c2c3c1cc(C)cc3c1ccccc1[n+]2CC.[I-]	IC50	2000 nM
CN1c2ccccc2-c2c3c1cccc3c1ccc(NC(=O)C(C)(C)C)cc1[n+]2C.[I-]	IC50	230 nM
COS(=O)(=O)[O-].Cc1cc2c3c([n+](C)c4ccccc4c3c1)-c1ccccc1N2C	IC50	740 nM
COc1cc2c3c([n+](C)c4ccc(Cl)cc4c3c1)-c1ccccc1N2C.[I-]	IC50	280 nM

Here is another compound to look at.
IN: Given the compound CN1c2ccccc2-c2c3c1cccc3c1ccc(NC(=O)C(F)(F)F)cc1[n+]2C.[I-] , what is its reported IC50?
OUT: 310 nM
